Target: furin, P09958;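 note: purified furin at 1:10 enzyme:substrate in 50 mM HEPES pH 7.5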
Sequence (P09958 whole entry): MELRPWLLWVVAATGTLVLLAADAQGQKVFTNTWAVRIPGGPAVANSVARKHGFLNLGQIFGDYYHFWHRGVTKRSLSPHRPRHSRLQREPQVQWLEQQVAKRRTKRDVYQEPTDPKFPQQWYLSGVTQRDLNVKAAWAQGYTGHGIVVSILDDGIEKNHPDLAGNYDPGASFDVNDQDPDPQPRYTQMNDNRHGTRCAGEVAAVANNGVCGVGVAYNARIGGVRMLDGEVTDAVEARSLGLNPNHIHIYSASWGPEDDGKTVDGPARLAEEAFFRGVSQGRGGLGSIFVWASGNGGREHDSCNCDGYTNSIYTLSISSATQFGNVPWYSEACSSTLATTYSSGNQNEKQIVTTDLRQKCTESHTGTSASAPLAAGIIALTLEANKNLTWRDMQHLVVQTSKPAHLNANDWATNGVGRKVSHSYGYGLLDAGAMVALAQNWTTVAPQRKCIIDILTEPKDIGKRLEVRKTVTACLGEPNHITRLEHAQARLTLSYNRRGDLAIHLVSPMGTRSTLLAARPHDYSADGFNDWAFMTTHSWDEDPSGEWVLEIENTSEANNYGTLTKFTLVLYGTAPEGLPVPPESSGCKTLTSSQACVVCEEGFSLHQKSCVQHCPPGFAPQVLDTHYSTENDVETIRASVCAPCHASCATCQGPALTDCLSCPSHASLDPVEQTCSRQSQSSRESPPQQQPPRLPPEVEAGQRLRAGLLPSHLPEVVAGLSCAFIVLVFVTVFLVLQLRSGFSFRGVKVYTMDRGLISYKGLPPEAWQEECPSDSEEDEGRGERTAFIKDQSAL
Assay: furin cleavage Z-score vs untreated control; higher = more cleavage, active = 3.5 or more, inactive = 1 or less, 8 variable residues between constant flanks
Conditions: 7.5 min
The other results are listed elsewhere or left out. How many sequences the whole screen found active is unknown.
Label met for high-side furin cleavage Z-score (at or above 1) and not met for low-side furin cleavage Z-score (below it).

Ask: Quick check, furin cleavage Z-score >= 1? CARLKRHPEEAGNASASA [FS-2276]
Result: met

Ask: Quick check, furin cleavage Z-score >= 1? CARQKREWVKAGNASASA [FS-2753]
Result: met

Ask: Quick check, furin cleavage Z-score >= 1? CARLKRAVSEAGNASASA [FS-2704]
Result: met

Ask: Quick check, furin cleavage Z-score >= 1? CAGCPPDSDAAGNASASA [HC1348]
Result: not met

Ask: Quick check, furin cleavage Z-score >= 1? CAAILDMIAGAGNASASA [HC332]
Result: not met

Ask: Quick check, furin cleavage Z-score >= 1? CARLKKIKDDAGNASASA [FS-1740]
Result: not met
